- System: NCI-H460
- Test summary: NCI tumour cell line growth inhibition, 48 h
Calls of active or inactive are those of the source. No stated cut-off is given here; in the data, active = GI50 up to about 1.1 µM and inactive = higher.
Please state which outcome applies, choosing from Y (active), N (inactive)

### Prompt Short answer needed: outcome of this test for CCCCN(C(=O)c1ccccc1)C1CCC(=O)c2[nH]c3ccccc3c21 (centres undefined) ?
### Response N

### Prompt Note, next up: O=P1(N(CCCl)CCCl)NCCCO1 (centres undefined) [CYCLOPHOSPHAMIDE ANHYDROUS]
### Response N

### Prompt Thanks! And O=C(Nc1ccccc1F)c1cc2ccc(O)cc2o/c1=N\c1ccccc1F ?
### Response N

### Prompt Quick one: NC1=NC(=O)[C@H](CSCc2ccccc2)N1C(=O)OCc1ccccc1
### Response N

### Prompt Now the same for CC(Cc1ccc(O)cn1)(NC(=O)c1ccccc1)C(=O)O (centres undefined)
### Response N

### Prompt What do we get for CC(=O)OC12c3ccccc3C(c3ccccc31)C1C(=O)N(c3ccccc3O)C(=O)C12 (centres undefined) ?
### Response N

### Prompt Field entry: Nc1ncnc2nc(N3CCN(CCO)CC3)[nH]c12
### Response N

### Prompt Entry to check: COC(=O)[C@@H]1C[C@@]2(C3C=CN(C(=O)C(F)(F)F)C=C3)c3ccccc3N(C(=O)C(F)(F)F)[C@H]2N1C(=O)OC
### Response N

### Prompt Please do the same for CCCNC(=O)Nc1ccc2c(c1)Cc1cc(N(CCCl)CCCl)ccc1-2 as well.
### Response N

### Prompt // next record CC1(Br)C(=O)NC(=O)N([C@H]2C[C@H](O)[C@@H](CO)O2)C1N=[N+]=[N-] (some centres undefined)
### Response N

### Prompt Thanks! And Cc1c(C(=O)OCc2ccccc2)[n+]([O-])c2cc(Cl)c(Cl)cc2[n+]1[O-] ?
### Response N

### Prompt What do you have for CC(C)SC(NC(=O)C1C(C)(C)CCC1(C)C)C(=O)O (centres undefined) ?
### Response N

### Prompt What do we get for COC(=O)C1=C(OC(=O)/C(=C/c2ccccc2)c2ccccc2)C(C(=O)OC)[C@@]2(O)[C@@H](C(=O)OC)[C@H](C)C[C@@H]1[C@@H]2C(=O)OC (some centres undefined) ?
### Response N

### Prompt CC(C)CC(N)C(=O)NC(CNC(CCC(N)=O)C(=O)NC(CC(C)C)C(=O)NC(CC(C)C)C(=O)O)Cc1ccc2ccccc2c1 (centres undefined) , same question.
### Response N

### Prompt Again, but for COc1cccc(C=C(C#N)C#N)c1OC
### Response N

### Prompt Next compound up: Cc1c(C(=O)O)n(C)c(=O)n(C)c1=O
### Response N

### Prompt Next up: COc1cc2c(cc1O)[C@H](C)C(c1ccc(OC)c(OC)c1)O2 (some centres undefined)
### Response N

### Prompt // query: O=C(Nc1ccccc1)OCCN=C1c2ccccc2C(Br)C(Br)c2ccccc21 (centres undefined)
### Response N

### Prompt Please do the same for C=CCOCCC(CC=C)C(=O)CC(=O)OC (centres undefined) as well.
### Response N

### Prompt Param item: COc1ccc(/C=C\c2cc(OC)c(OC)c(OC)c2)cc1OC(=O)CC(N)C(=O)O (centres undefined)
### Response Y

### Prompt Do the same for CC1=NN(C(=O)Cc2ccccc2)C(=O)/C1=C/c1c(O)ccc2ccccc12 please
### Response N

### Prompt What would you report for CCC1(O)CC(OC2CC(N(C)C)C(OC3CC(O)C(OC4OC(C)C(=O)C=C4N)C(C)O3)C(C)O2)c2c(O)c3c(c(O)c2C1C(=O)OC)C(=O)c1cccc(O)c1C3=O (centres undefined) ?
### Response Y

### Prompt How about C=C1C(=O)C([Si](C)(C)C)=C2C=C(C)C3(CC3)C12C (centres undefined) ?
### Response N

### Prompt How about Cc1ccc(C#CS(=O)(=O)C(F)(F)F)cc1 ?
### Response N

### Prompt Another compound to check: CN(C)CCOc1ccc2c(c1)C/C(=C/c1ncc([N+](=O)[O-])n1C)C2=O
### Response Y

### Prompt Input CCOC(=O)c1cn(-c2ccccc2)c(=S)n2c1nc1ccccc12
### Response N

### Prompt # iterate: COC(=O)/C=C(\C)C(=O)N(C)c1ccccc1I
### Response N

### Prompt // repeat for C/C(=N\Nc1nc2ccccc2s1)c1ccncn1 and report
### Response Y

### Prompt Lookup N/C=N/S(=O)(=O)c1ccc(NC(=O)COC(=O)c2cccc3c(=O)c4ccccc4[nH]c23)cc1
### Response N

### Prompt Next: COc1ccc(N2C(=O)/C(=C\c3cccc(Oc4ccccc4)c3)SC2c2ccccc2)cc1 (centres undefined)
### Response N

### Prompt Can you handle Nc1ccccc1S(=O)(=O)c1ccccc1 next?
### Response N

### Prompt Likewise for Cc1ccc(C(=O)Nc2ccc(CP(=O)(O)O)cc2CP(=O)(O)O)cc1NC(=O)c1cccc(N)c1 ?
### Response N

### Prompt Now consider CC1(C)CC(=O)C2=C(C1)NC(SCC(=O)O)=C(C#N)C2c1ccc(Br)cc1 (centres undefined) and answer again.
### Response N

### Prompt Also Cc1ccc(NC(=O)/C(=N/N(C)C)C(C2OC(=O)c3ccccc32)[N+](=O)[O-])cc1 (centres undefined) ?
### Response N

### Prompt // query: CC[C@]1(Cc2ccc(OC)c(OC)c2)C=[N+]([O-])O[C@H](OC2CCCC2(c2ccccc2)c2ccccc2)[C@@H]1OC(C)=O (some centres undefined)
### Response N

### Prompt What would you report for Cc1ccc(S(=O)(=O)n2c3c(c4ccccc42)CCN2C[C@H]([C@H](C)Br)CC[C@@H]32)cc1 ?
### Response N

### Prompt Check C/C=C/COc1cc(NC(=S)OC(C)C)ccc1Cl.C/C=C\COc1cc(NC(=S)OC(C)C)ccc1Cl too.
### Response N

### Prompt Can you handle Nc1ccc(N(S(=O)(=O)c2ccccc2)S(=O)(=O)c2ccccc2)c(Cl)c1 next?
### Response N

### Prompt Also need CC(C)(C)C1=C(Br)C(Br)(C(C)(C)C)OP1(=O)c1ccccc1 (centres undefined) , thanks.
### Response N
